- assayMethodText: Half life in Sprague-Dawley rat at 2 mg/kg, iv
- Format: ADME, organism-based
- Parameters: dose 2 mg/kg, route intravenous
- conditionParameters: in vivo
assayMetric: half-life (h)
Give just the numeric value; h need not be written.

I'd like to know its half-life. The compound in question is C[C@@H]1CN(c2ccc(F)cc2C(F)(F)F)CCN1S(=O)(=O)c1ccc([C@@](O)(C(N)=O)C(F)(F)F)s1
8.6

* * *

- assayMethodText: Clearance in Sprague-Dawley rat at 2 mg/kg, iv
- Type: ADME, organism-based
- Design: dose 2 mg/kg, route intravenous
- conditionParameters: in vivo
assayMetric: clearance

Quick one: clearance of C[C@@H]1CN(c2ccc(F)cc2C(F)(F)F)CCN1S(=O)(=O)c1ccc([C@@](O)(C(N)=O)C(F)(F)F)s1 ?
8 mL/min/kg

* * *

For each of the compounds below, state its AUC.
- assayMethodText: AUC in C57B6 mouse at 2 mg/kg, iv
- Type: ADME, organism-based
- Design: dose 2 mg/kg, route intravenous
- conditionParameters: plasma
Numeric only. Scale: ng·h/mL

AUC for C[C@@H]1CN(c2ccc(F)cc2C(F)(F)F)CCN1S(=O)(=O)c1cccc([C@@](O)(C(N)=O)C(F)(F)F)c1 ?
6130

What does the data say about its AUC? Entry: C[C@@H]1CN(c2ccc(F)cc2C(F)(F)F)CCN1S(=O)(=O)c1ccc([C@@](O)(C(N)=O)C(F)(F)F)s1
3600

If you can, please state the reported AUC value of C[C@@H]1CN(c2ccc(F)cc2C(F)(F)F)CCN1S(=O)(=O)c1ccc([C@@](C)(O)C(F)(F)F)s1 .
3590

* * *

- assayMethodText: Tmax in Sprague-Dawley rat at 10 mg/kg, po
- Format: ADME, organism-based
- Set-up: dose 10 mg/kg, route oral
- conditionParameters: in vivo
assayMetric: Tmax (h)
Dear colleague, please return just the value in h, with no unit written.

Given the entry C[C@@H]1CN(c2ccc(F)cc2C(F)(F)F)CCN1S(=O)(=O)c1ccc([C@@](O)(C(N)=O)C(F)(F)F)s1 , report its measured Tmax.
1.8

* * *

Would you kindly list clearance for each of these compounds?
- assayMethodText: Clearance in C57B6 mouse at 2 mg/kg, iv
- Assay type: ADME, organism-based
- Parameters: dose 2 mg/kg, route intravenous
- conditionParameters: in vivo
The response must be a number in mL/min/kg with no trailing unit.

Field request: clearance | item: C[C@@H]1CN(c2ccc(F)cc2C(F)(F)F)CCN1S(=O)(=O)c1ccc([C@@](O)(C(N)=O)C(F)(F)F)s1
9

Reported clearance for C[C@@H]1CN(c2ccc(F)cc2C(F)(F)F)CCN1S(=O)(=O)c1cccc([C@@](O)(C(N)=O)C(F)(F)F)c1 : what is it?
5.4

Can you look up the measured clearance of C[C@@H]1CN(c2ccc(F)cc2C(F)(F)F)CCN1S(=O)(=O)c1ccc([C@@](C)(O)C(F)(F)F)s1 for me?
9

* * *

- assayMethodText: Cmax in Sprague-Dawley rat at 10 mg/kg, po
- Assay type: ADME, organism-based
- Design: dose 10 mg/kg, route oral
- conditionParameters: in vivo
assayMetric: Cmax (ng/mL)
A number alone suffices; assume ng/mL.

Cmax lookup needed for C[C@@H]1CN(c2ccc(F)cc2C(F)(F)F)CCN1S(=O)(=O)c1ccc([C@@](O)(C(N)=O)C(F)(F)F)s1 , thanks.
656
